TEST TARGET: human APJ receptor (Homo sapiens (Human), UniProt P35414)
Sequence (P35414 whole entry): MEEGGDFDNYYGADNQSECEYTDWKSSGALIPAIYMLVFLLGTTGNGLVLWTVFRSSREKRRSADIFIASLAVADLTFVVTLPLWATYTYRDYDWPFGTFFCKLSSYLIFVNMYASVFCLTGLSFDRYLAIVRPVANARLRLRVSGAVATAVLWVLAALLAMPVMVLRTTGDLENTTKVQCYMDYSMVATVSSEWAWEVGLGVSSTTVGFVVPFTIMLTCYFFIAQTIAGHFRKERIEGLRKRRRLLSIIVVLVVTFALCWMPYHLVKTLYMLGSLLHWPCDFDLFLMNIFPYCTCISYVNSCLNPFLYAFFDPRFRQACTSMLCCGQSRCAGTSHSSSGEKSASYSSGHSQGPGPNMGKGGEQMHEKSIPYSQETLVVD
ASSAY: [35S]GTPγS binding assay on membranes from CHO cells stably expressing human APJ receptor
RUN PARAMETERS: means of several independent experiments, read-out: Activity hAPJ SPA EC50 IP

COMPOUND | EC50 / µM
COc1ncnc(OC)c1-n1c(NS(=O)(=O)[C@@H](C)[C@H](OC)c2ncc(C)cn2)nnc1-c1cccc(C#N)c1 | 0.11
C[C@H](c1ncc(C#N)cn1)[C@H](C)S(=O)(=O)Nc1nnc(-c2ccccc2)n1-c1c(F)cccc1F | 0.048
COc1ccnc(OC)c1-n1c(NS(=O)(=O)[C@@H](C)[C@H](OC)c2ncc(C)cn2)nnc1-c1ccccc1 [Example 36.0] | 0.0019
COc1cccc(-c2nnc(NS(=O)(=O)[C@@H](C)[C@H](OC)c3ncc(Cl)cn3)n2[C@H]2CCCOC2)c1 | 0.022
COCC1(n2c(NS(=O)(=O)[C@@H](C)[C@H](OC)c3ncc(Cl)cn3)nnc2-c2ccccc2)CC1 | 0.001
Cc1cnc([C@H](OC(C)C)[C@H](C)S(=O)(=O)Nc2nnc(-c3ccccc3)n2C2CCOCC2)nc1 | 0.42
COc1cccc(OC)c1-n1c(NS(=O)(=O)[C@@H](C)[C@H](O)c2ncc(C)cn2)nnc1-c1ccccc1 | 0.00081

###

TEST TARGET: human APJ receptor (Homo sapiens (Human))
ASSAY: [35S]GTPγS binding assay on membranes from CHO cells stably expressing human APJ receptor
Format: biochemical
RUN PARAMETERS: means of several independent experiments, read-out: Activity hAPJ SPA EC50 IP
Just a reminder that ties go to 0.0: only EC50 strictly below 60 nM counts as 1.0.

COMPOUND | QUALITATIVE LABEL
COc1cccc(OC)c1-n1c(NS(=O)(=O)[C@@H](C)[C@H](C)c2ncc(C)cn2)nnc1-c1ccccc1 | 1.0
COC[C@@H](C)n1c(NS(=O)(=O)[C@@H](C)[C@H](OC)c2ncc(Cl)cn2)nnc1-c1ccccc1 | 1.0
COc1cccc(OC)c1-n1c(NS(=O)(=O)[C@@H](C)[C@H](OC)c2ncc(C)cn2)nnc1-c1ccc2c(c1)OCO2 | 1.0
COc1cccc(OC)c1-n1c(NS(=O)(=O)[C@H]2CCCN(c3ncc(F)cn3)C2)nnc1-c1ccccc1 (single isomer, unassigned) [Example 21.0] | 1.0
COc1cnc([C@@H](C)[C@H](C)S(=O)(=O)Nc2nnc(-c3ccccc3Br)n2C2COC(C)(C)OC2)nc1 | 0.0
CO[C@H](c1ncc(Cl)cn1)[C@H](C)S(=O)(=O)Nc1nnc(-c2ccccc2)n1C1CCOCC1 | 0.0
COc1ccc(OC)c(-c2nnc(NS(=O)(=O)[C@@H](C)[C@H](OC)c3ncc(C)cn3)n2-c2c(OC)cccc2OC)c1 | 1.0

###

TEST TARGET: human APJ receptor (Homo sapiens (Human))
ASSAY: [35S]GTPγS binding assay on membranes from CHO cells stably expressing human APJ receptor
RUN PARAMETERS: means of several independent experiments, read-out: Activity hAPJ SPA EC50 IP
Classification by EC50 follows these ranges: bin 1 (below 4 nM), bin 2 (4 nM to below 60 nM), bin 3 (60 nM or more)

COMPOUND | QUALITATIVE LABEL
COc1cccc(OC)c1-n1c(NS(=O)(=O)[C@H]2C[C@@H](O)CN(c3ncc(F)cn3)C2)nnc1-c1ccccc1 (mixture of isomers) [Example 53.0] | bin 2
COc1cccc(-c2nnc(NS(=O)(=O)[C@@H](C)[C@H](OC)c3ncc(C)cn3)n2-c2c(OC)ncnc2OC)c1 | bin 2
CO[C@H](c1ncc(C)cn1)[C@H](C)S(=O)(=O)Nc1nnc(-c2ccccc2)n1-c1c(F)cccc1F | bin 2
C[C@H](c1ncc(Cl)cn1)[C@H](C)S(=O)(=O)Nc1nnc(-c2ccccc2)n1-c1c(F)cccc1F | bin 1
COc1cccc(OC)c1-n1c(NS(=O)(=O)[C@@H](C)[C@H](OC)c2ncc(C)cn2)nnc1-c1cccc(F)c1 | bin 1
COc1ncnc(OC)c1-n1c(NS(=O)(=O)[C@H]2CCCN(c3ncc(C)cn3)C2)nnc1-c1ccccc1 (single isomer, unassigned) [Example 29.0] | bin 3
CCN(CC)c1ccc(-c2nnc(NS(=O)(=O)[C@@H](C)[C@H](OC)c3ncc(C)cn3)n2-c2c(OC)cccc2OC)cc1 | bin 3
COc1cccc(OC)c1-n1c(NS(=O)(=O)[C@@H](C)[C@H](OC)c2ncc(C)cn2)nnc1-c1cccc2ncccc12 | bin 3
COc1cccc(OC)c1-n1c(NS(=O)(=O)[C@@H](C)[C@H](OC)c2ncc(C)cn2)nnc1-c1cccc(S(=O)(=O)N(C)C)c1 | bin 2
COc1ncnc(OC)c1-n1c(NS(=O)(=O)[C@@H](C)[C@H](OC)c2ncc(C)cn2)nnc1-c1cccc(Br)c1 | bin 2
COc1cccc(OC)c1-n1c(NS(=O)(=O)[C@@H](C)[C@H](OC)c2ncc(C)cn2)nnc1-c1cccc(OC(F)(F)F)c1 | bin 1
CO[C@H](c1ncc(Cl)cn1)[C@H](C)S(=O)(=O)Nc1nnc(-c2cccc(S(C)(=O)=O)c2)n1C1CC1 | bin 3
COc1cccc(OC)c1-n1c(NS(=O)(=O)[C@H]2CCCN(c3ncc(Cl)cn3)C2)nnc1-c1ccccc1 (single isomer, unassigned) [Example 34.0] | bin 2
COc1cccc(OC)c1-n1c(NS(=O)(=O)CCc2ccc(F)cc2C#N)nnc1-c1ccccc1 | bin 2
COc1cccc(OC)c1-n1c(NS(=O)(=O)[C@@H](C)[C@H](OC)c2ncc(C)cn2)nnc1-c1cccc(Cl)c1 | bin 1
COc1ncnc(OC)c1-n1c(NS(=O)(=O)CCc2ccc(Cl)cc2)nnc1-c1ccccc1 | bin 2
COc1cccc(OC)c1-n1c(NS(=O)(=O)[C@@H](C)[C@H](OC)c2ncc(C)cn2)nnc1-c1ccc(Cl)cc1Cl | bin 3
COC[C@H](C)n1c(NS(=O)(=O)[C@@H](C)[C@H](C)c2ncc(Cl)cn2)nnc1-c1ccccc1 | bin 2
COc1cccc(-c2nnc(NS(=O)(=O)[C@@H](C)[C@H](OC)c3ncc(C)cn3)n2-c2c(OC)cccc2OC)c1 | bin 1
CO[C@H]1CCC[C@@H](OC)[C@@H]1n1c(NS(=O)(=O)[C@@H](C)[C@H](C)c2ncc(C)cn2)nnc1-c1ccccc1 | bin 3
COc1cccc(OC)c1-n1c(NS(=O)(=O)[C@@H](C)[C@H](OC)c2ncc(C)cn2)nnc1-c1ccc(F)c(F)c1 | bin 2
COc1cccc(OC)c1-n1c(NS(=O)(=O)[C@@H](C)[C@H](OC)c2ncc(C)cn2)nnc1-c1ccc2nccnc2c1 | bin 2
COc1cccc(OC)c1-n1c(NS(=O)(=O)[C@@H](C)[C@H](OC)c2ncc(C)cn2)nnc1-c1ccc(C(C)(C)C)cc1 | bin 3
COc1cccc(OC)c1-n1c(NS(=O)(=O)[C@H]2C[C@@H](O)CN(c3ncc(F)cn3)C2)nnc1-c1ccccc1 (single isomer, unassigned) [Example 57.0] | bin 1
Cc1cnc([C@H](OC(C)C)[C@H](C)S(=O)(=O)Nc2nnc(-c3ccccc3)n2-c2c(F)cccc2F)nc1 | bin 1

###

TEST TARGET: human APJ receptor (Homo sapiens (Human), UniProt P35414)
ASSAY: [35S]GTPγS binding assay on membranes from CHO cells stably expressing human APJ receptor
RUN PARAMETERS: means of several independent experiments, read-out: Activity hAPJ SPA EC50 IP
OBSERVED PROPERTY: log10 of EC50 (log10 of the value in nM)

MOLECULE | TEST TARGET | OBSERVED PROPERTY | QUANTITATIVE READOUT
COc1ncnc(OC)c1-n1c(NS(=O)(=O)[C@H]2CCCN(c3ncc(C)cn3)C2)nnc1-c1ccccc1 (single isomer, unassigned) [Example 30.0] | human APJ receptor (Homo sapiens (Human), UniProt P35414) | log10 of EC50 | 2.00
COc1ccccc1-c1nnc(NS(=O)(=O)[C@@H](C)[C@H](OC)c2ncc(Cl)cn2)n1[C@@H]1CCCOC1 | human APJ receptor (Homo sapiens (Human), UniProt P35414) | log10 of EC50 | 2.26
COc1cccc(OC)c1-n1c(NS(=O)(=O)[C@@H](C)[C@H](OC)c2ncc(C)cn2)nnc1-c1cccc([C@](C)(O)C(F)(F)F)c1 (mixture of isomers) | human APJ receptor (Homo sapiens (Human), UniProt P35414) | log10 of EC50 | 1.36
COc1ccnc(OC)c1-n1c(NS(=O)(=O)[C@@H](C)[C@H](OC)c2ncc(C)cn2)nnc1-c1ccccc1 (single isomer, unassigned) [Example 23.0] | human APJ receptor (Homo sapiens (Human), UniProt P35414) | log10 of EC50 | 0.77
COc1cccc(OC)c1-n1c(NS(=O)(=O)[C@@H](C)[C@H](OC)c2ncc(C)cn2)nnc1-c1ccc(OC(F)(F)F)cc1 | human APJ receptor (Homo sapiens (Human), UniProt P35414) | log10 of EC50 | 1.54
COCC1(n2c(NS(=O)(=O)[C@@H](C)[C@H](OC)c3ncc(Cl)cn3)nnc2-c2cccc3nn(C)cc23)CCC1 | human APJ receptor (Homo sapiens (Human), UniProt P35414) | log10 of EC50 | 2.53
COc1ncnc(OC)c1-n1c(NS(=O)(=O)[C@H]2CCCN(c3ncc(F)cn3)C2)nnc1-c1ccccc1 (single isomer, unassigned) [Example 28.0] | human APJ receptor (Homo sapiens (Human), UniProt P35414) | log10 of EC50 | 2.61
COc1ncnc(OC)c1-n1c(NS(=O)(=O)[C@H]2CCCN(c3ncc(F)cn3)C2)nnc1-c1ccccc1 (single isomer, unassigned) [Example 27.0] | human APJ receptor (Homo sapiens (Human), UniProt P35414) | log10 of EC50 | 1.51
COc1cccc(OC)c1-n1c(NS(=O)(=O)[C@@H](C)Cc2ncc(F)cn2)nnc1-c1ccccc1 (single isomer, unassigned) | human APJ receptor (Homo sapiens (Human), UniProt P35414) | log10 of EC50 | 1.18
COc1cccc(OC)c1-n1c(NS(=O)(=O)[C@H]2C[C@@H](O)CN(c3ncc(F)cn3)C2)nnc1-c1ccccc1 (single isomer, unassigned) [Example 56.0] | human APJ receptor (Homo sapiens (Human), UniProt P35414) | log10 of EC50 | 1.48
CO[C@H](c1ncc(Cl)cn1)[C@H](C)S(=O)(=O)Nc1nnc(-c2cccc3nn(C)cc23)n1C1CC1 | human APJ receptor (Homo sapiens (Human), UniProt P35414) | log10 of EC50 | 1.04
